- Target of assay: κ-opioid receptor (Homo sapiens)
- Sequence (P41145 whole entry): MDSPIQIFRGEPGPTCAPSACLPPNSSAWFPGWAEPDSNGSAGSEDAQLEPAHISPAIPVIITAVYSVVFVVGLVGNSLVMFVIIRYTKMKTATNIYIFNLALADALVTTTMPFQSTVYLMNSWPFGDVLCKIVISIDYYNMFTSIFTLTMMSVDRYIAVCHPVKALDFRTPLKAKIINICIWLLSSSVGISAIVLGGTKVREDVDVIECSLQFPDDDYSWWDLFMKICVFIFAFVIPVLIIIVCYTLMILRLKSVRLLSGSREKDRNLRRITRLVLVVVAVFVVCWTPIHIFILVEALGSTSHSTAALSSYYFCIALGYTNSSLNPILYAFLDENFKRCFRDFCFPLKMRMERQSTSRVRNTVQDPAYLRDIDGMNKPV
- Experiment notes: biochemical
- Type: binding
- Run parameters: read-out: Ki, κ
Readout label: Ki (nM)
Answer with a number only, understood to be in nM.

Compound: Oc1cccc([C@]23CCC[C@H](C2)N(C[C@@H]2C[C@H]2c2ccccc2)CC3)c1 [(−)−30]
Reported: 210

Compound: Oc1cccc([C@@]23CCC[C@@H](C2)N(C[C@@H]2C[C@@H]2c2ccccc2)CC3)c1 [(−)−31]
Reported: 153

Compound: Oc1cccc([C@]23CCC[C@H](C2)N(C[C@H]2C[C@H]2c2ccccc2)CC3)c1 [(+)−31]
Reported: 475

For reference, reported Ki for Oc1cccc([C@@]23CCC[C@@H](C2)N(C[C@H]2C[C@H]2c2ccccc2)CC3)c1 [(+)−32] stands at 174
